- subject-of-test: JAK3 (catalytic domain, His-tag) (Homo sapiens)
- Construct: All four purified enzymes contain only the catalytic domain; His (N); purchased Carna Biosciences, Inc; host or cells: baculovirus expression system
- Sequence (P52333 822-1111 limits assumed): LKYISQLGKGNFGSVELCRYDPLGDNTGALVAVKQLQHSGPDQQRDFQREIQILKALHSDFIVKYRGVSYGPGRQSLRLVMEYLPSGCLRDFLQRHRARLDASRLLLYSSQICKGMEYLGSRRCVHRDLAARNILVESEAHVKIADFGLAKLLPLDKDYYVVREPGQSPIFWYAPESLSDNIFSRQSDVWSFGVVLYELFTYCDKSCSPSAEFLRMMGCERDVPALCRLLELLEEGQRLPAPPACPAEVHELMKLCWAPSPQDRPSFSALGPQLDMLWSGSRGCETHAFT
- experimental-protocol: JAK kinase assay (HTRF, phosphorylation of TK substrate-biotin), JAK3
- Format: biochemical
- run-parameters: HTRF assay, ATP at Km (2 μM); read-out: JAK3 kinase inhibitory activity (EC50 indicator)
Below, each entry is listed alongside its reported EC50.

Query :: I'd like to know its EC50. The molecule in question is Cc1cc(C(=O)N2[C@@H]3CC[C@H]2CN(c2ncnc4[nH]ccc24)C3)ccc1S(N)(=O)=O [Example 392]
Result :: < 100 nM

Query :: I'd like to know its EC50. The molecule in question is N#Cc1ccc(CC(=O)N2CCN(c3nc(N)nc4[nH]ccc34)CC23CC3)cc1 [Example 312]
Result :: < 100 nM

Query :: I'd like to know its EC50. The molecule in question is O=C(c1nsc2cc(Br)ccc12)N1[C@@H]2CC[C@@H]1CN(c1ncnc3[nH]ccc13)C2 [Example 360]
Result :: 100 to 500 nM

Query :: I'd like to know its EC50. The molecule in question is NS(=O)(=O)c1ccc(NC(=O)C(=O)N2CCN(c3ncnc4[nH]ccc34)CC23CC3)cc1 [Example 401]
Result :: < 100 nM

Query :: I'd like to know its EC50. The molecule in question is N#CCc1ccccc1C(=O)N1CCN(c2ncnc3[nH]ccc23)CC12CC2 [Example 300]
Result :: 100 to 500 nM

Query :: I'd like to know its EC50. The molecule in question is O=C(c1cc2ccccc2[nH]1)N1[C@@H]2CC[C@H]1CN(c1ncnc3[nH]ccc13)C2 [Example 348]
Result :: < 100 nM

Attention now turns to another entry.
Query :: I'd like to know its EC50. The molecule in question is N#Cc1ccc(CC(=O)N2C[C@@H]3C[C@H]2CN3c2ncnc3[nH]ccc23)cc1 [Example 278]
Result :: > 500 nM

====

Below, each entry is listed alongside its reported pEC50.
- subject-of-test: TYK2 (aa 871-1187, catalytic domain, GST-tag) (Homo sapiens, UniProt P29597)
- Construct: JAK1 (aa 850-1154) and TYK2 (aa 871-1187) are expressed with an N-terminally fused GST-tag; GST (N); purchased Carna Biosciences, Inc; host or cells: baculovirus expression system
- Sequence (P29597 871-1187): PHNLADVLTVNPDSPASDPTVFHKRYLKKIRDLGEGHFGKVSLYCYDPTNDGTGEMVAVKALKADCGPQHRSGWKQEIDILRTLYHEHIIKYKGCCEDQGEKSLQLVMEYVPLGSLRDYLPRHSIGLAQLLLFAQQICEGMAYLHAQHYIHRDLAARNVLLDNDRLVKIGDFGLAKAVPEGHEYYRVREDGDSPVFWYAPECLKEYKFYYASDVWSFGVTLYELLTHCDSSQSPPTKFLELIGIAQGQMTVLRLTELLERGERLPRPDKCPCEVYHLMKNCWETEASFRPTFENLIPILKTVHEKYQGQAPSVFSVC
- experimental-protocol: JAK kinase assay (HTRF, phosphorylation of TK substrate-biotin), TYK2
- Type: biochemical
- run-parameters: ATP at Km (13 μM); read-out: TYK2 kinase inhibitory activity (EC50 indicator)
pEC50: −log10 of the molar value.

Use these answered entries as a reference point.
Query :: I'd like to know its pEC50. The compound in question is `N#CCCC(=O)N1CCN(c2ccnc3[nH]ccc23)CC12CC2`
Result :: < 6.30

Query :: I'd like to know its pEC50. The compound in question is `Cn1cc(S(N)(=O)=O)cc1C(=O)N1CCN(c2ncnc3[nH]ccc23)CC12CC2`
Result :: > 7.00

Query :: I'd like to know its pEC50. The compound in question is `O=C(C(=O)N1CCN(c2ncnc3[nH]ccc23)CC12CC2)c1cccs1`
Result :: 6.30 to 7.00

Query :: I'd like to know its pEC50. The compound in question is `N#Cc1ccc(CC(=O)N2CCN(c3nc(NC(=O)c4ccccc4)nc4[nH]ccc34)CC23CC3)cc1`
Result :: < 6.30

Query :: I'd like to know its pEC50. The compound in question is `N#Cc1ccc(C(=O)N2CCN(c3ncnc4[nH]ccc34)CC23CC3)c(F)c1`
Result :: 6.30 to 7.00

Further cases:
Query :: I'd like to know its pEC50. The compound in question is `O=C(c1cccc(-c2ccccc2)c1)N1[C@@H]2CC[C@@H]1CN(c1ncnc3[nH]ccc13)C2`
Result :: < 6.30

Query :: I'd like to know its pEC50. The compound in question is `N#Cc1cccc(C(=O)N2CCN(c3ncnc4[nH]ccc34)CC23CC3)c1`
Result :: > 7.00

Query :: I'd like to know its pEC50. The compound in question is `O=C(c1cc2cc(F)cc(F)c2[nH]1)N1CCN(c2ncnc3[nH]ccc23)CC12CC2`
Result :: > 7.00
